Consider the following compounds and their measured melting point readings.

compound	melting point
Cc1cccc(-c2[nH]c(C(C)C)nc2-c2cccc(-c3ccccn3)c2)n1 [Example 43]	97 to 100 °C
Cc1cccc(-c2n[nH]cc2-c2ccc(F)c(-c3ccc(O)c(S(N)(=O)=O)c3)c2)n1 [Example 148]	104 to 109 °C
Cc1cccc(-c2n[nH]cc2-c2ccc(F)c(-c3cnn(C)c3)c2)n1 [Example 195]	155 to 156 °C
Cc1cccc(-c2n[nH]cc2-c2ccc(F)c(-c3c[nH]c(C(O)CO)n3)c2)n1 (stereo not shown) [Example 207]	125 to 127 °C
Cc1cccc(-c2n[nH]cc2-c2ccc(F)c(-c3c[nH]cn3)c2)n1 [Example 206]	229 to 233 °C

Given the compound Cc1cccc(-c2nc(C(C)C)[nH]c2-c2ccc(F)c(-c3cnn(C(C)C)c3)c2)n1 [Example 108] , what is its reported melting point?
84 to 85 °C

Which melting point reading was recorded for the compound Cc1cccc(-c2[nH]c(C(C)C)nc2-c2cccc(-c3ccc(NS(C)(=O)=O)cc3F)c2)n1 [Example 73] ?
179 to 184 °C

Query: melting point; subject: Cc1cccc(-c2nc(C(C)C)[nH]c2-c2cccc(-c3ccc(C(=O)N4CCS(=O)(=O)CC4)cc3)c2)n1 [Example 57]
141 to 145 °C

For CCS(=O)(=O)Nc1ccc(-c2cccc(-c3nc(C(C)C)[nH]c3-c3cccc(C)n3)c2)cc1 [Example 30] , what is its reported melting point?
123 to 135 °C
